- method notes: Test of blood kinetics in the rats
- Format: in vivo
- experimental parameters: rat, plasma, 2 mg/kg; fasted Wistar male rats, oral single dose of mixed solution of five compounds, each compound 2 mg/5 mL/kg, n=5, LC-MS; read-out: Cmax (maximum concentration in plasma)
parameter measured: Cmax (ng/mL)

# example entries with known answers
| compound | quantitative result |
| --- | --- |
| N#CC(=Cc1ccccc1F)C(=O)N[C@@H](Cc1c[nH]c2ccccc12)C(=O)O [Compound 22] | 4000 |
| Cn1cc(C[C@H](NC(=O)C(C#N)=Cc2ccccc2F)C(=O)O)c2ccccc21 [Compound 37] | 1500 |
| COc1ccc(C[C@H](NC(=O)C=Cc2cc(F)ccc2F)C(=O)O)cc1 [Compound 52] | 18000 |
| O=C(C=Cc1cccc(F)c1)N[C@@H](Cc1c[nH]c2ccccc12)C(=O)O [Compound 4] | 4300 |
| Cn1cc(C[C@H](NC(=O)C=Cc2ccc(F)cc2)C(=O)O)c2ccccc21 [Compound 28] | 37700 |

a: C=CC(=O)N[C@@H](Cc1c[nH]c2ccccc12)C(=O)O [Compound 1, N^α-Acryloyl-L-tryptophan]
b: N#CC(=Cc1ccccc1)C(=O)N[C@@H](Cc1c[nH]c2ccccc12)C(=O)O [Compound 25]
c: Cn1cc(C[C@H](NC(=O)C=Cc2ccc(C#N)cc2)C(=O)O)c2ccccc21 [Compound 36]
[Q] Please put the entries in order of rising Cmax. I'd appreciate it if you listed the labels in the requested order.
[A] b, c, a

* * *

- System: ddY-type mice
- method notes: Analgesic efficacy test (1): acetic acid writhing test (nociceptive pain model animal)
- Type: in vivo
- experimental parameters: Mus musculus, 25 min; writhing number, male ddY mice, oral single dose 100 mg/kg, acetic acid i.p. 25 min after administration, mean ± standard error; read-out: Percent Suppression (%)
Structures can show the parent of a compound that is named as a salt.
Catalogue of inhibition in vivo at 100 mg/kg readings, one per entry.
Hi! Could you send only the number? It should be in %, unit omitted.

| molecule | inhibition in vivo at 100 mg/kg (%) |
| --- | --- |
| NCCCC[C@H](NC(=O)C=Cc1ccccc1F)C(=O)O [Compound 61, hydrochloride] | 40.5 |

[Q] // inhibition in vivo at 100 mg/kg lookup, key: `Cn1cc(C[C@H](NC(=O)C=Cc2ccc(Oc3ccccc3)cc2)C(=O)O)c2ccccc21`
[A] 55.2

[Q] Here is the next molecule: `COc1ccc(C[C@H](NC(=O)C=Cc2ccc(F)cc2)C(=O)O)cc1`
[A] 52.7

[Q] Here is the next molecule: `O=C(C=Cc1cc(C(F)(F)F)cc(C(F)(F)F)c1)N[C@@H](Cc1c[nH]c2ccccc12)C(=O)O`
[A] 69

[Q] Here is the next molecule: `O=C(C=Cc1cccc(O)c1)N[C@@H](Cc1c[nH]c2ccccc12)C(=O)O`
[A] 39.2

[Q] Here is the next molecule: `Cn1cc(C[C@H](NC(=O)C=Cc2c(F)cccc2F)C(=O)O)c2ccccc21`
[A] 31.5

* * *

- method notes: Test of blood kinetics in the rats
- Type: in vivo
- experimental parameters: rat, plasma, 2 mg/kg; fasted Wistar male rats, oral single dose of mixed solution of five compounds, each compound 2 mg/5 mL/kg, n=5, LC-MS; read-out: Cmax (maximum concentration in plasma)
parameter measured: Cmax (ng/mL)

# example entries with known answers
| smi | Cmax / ng/mL |
| --- | --- |
| Cn1cc(C[C@H](NC(=O)C=Cc2ccccc2C#N)C(=O)O)c2ccccc21 | 3600 |
| O=C(C=Cc1ccc(F)cc1)N[C@@H](Cc1c[nH]c2ccccc12)C(=O)O | 2300 |
| O=C(C=Cc1cc(F)ccc1F)N[C@@H](Cc1c[nH]c2ccccc12)C(=O)O | 2800 |

P: O=C(C=Cc1ccccc1)N[C@@H](Cc1c[nH]c2ccccc12)C(=O)O
Q: O=C(N[C@@H](Cc1c[nH]c2ccccc12)C(=O)O)c1cc2ccccc2o1
[Q] Which one would you say has the larger Cmax value: P , or Q ? // respond with label for picked entry
[A] P

A: COc1ccccc1C=CC(=O)N[C@@H](Cc1c[nH]c2ccccc12)C(=O)O
B: COc1ccc(C[C@H](NC(=O)C=Cc2ccc(F)cc2)C(=O)O)cc1
[Q] Which one would you say has the larger Cmax value: A , or B ? // respond with label for picked entry
[A] B
(B: 18800 ng/mL, A: 1700 ng/mL)

The reported numbers originate from patent US9150510B2.
